assay: qHTS assay to identify small molecule agonists of the estrogen related receptor signaling pathway with the pleiotropic PPARgamma coactivator (PGC) from Tox21 10K library (AID 1224842); conditions: PGC/ERR reporter cell line, luciferase ONE-Glo, 18 h; series mostly up to 92.4 µM; also: nearly all actives have a fitted effect of over 15% in size
Results filed as inconclusive are left out. Calls of active or inactive are those of the source. Calls follow the shape of the dose curve; as a rule, active = well fitted activation curve with a large enough effect in the repeat runs; inconclusive = weak or mixed curves, or effect the other way; inactive = no such curve, though single readings can be large or run the other way.
Classes used: active, inactive

Molecule	Assigned Class
COC(=O)c1ccccc1OC	inactive
CN(C)[C@@H](CCOc1cccc2ccccc12)c1ccccc1	inactive
Cc1ccc(C)cc1	inactive
O=C(O)c1cc(N=Nc2ccc([N+](=O)[O-])cc2)ccc1O	active
Cc1cc(C(C)(C)C)c(O)c(C)c1Cn1c(=O)n(Cc2c(C)cc(C(C)(C)C)c(O)c2C)c(=O)n(Cc2c(C)cc(C(C)(C)C)c(O)c2C)c1=O	inactive
CCC(COC(=O)CCS)(COC(=O)CCS)COC(=O)CCS	inactive
O=c1oc2cc(O)ccc2c2oc3cc(O)ccc3c12	active
Cc1c(N)cccc1C(F)(F)F	inactive
O=C(O)O	active
C#C[C@]1(O)CC[C@H]2[C@@H]3[C@H](C)CC4=C(CCC(=O)C4)[C@H]3CC[C@@]21C	inactive
COc1ccc2c(c1)c(CC(=O)OC/C=C(\C)CC/C=C(\C)CCC=C(C)C)c(C)n2C(=O)c1ccc(Cl)cc1	inactive
O=C(O)c1cc(=O)c2ccccc2o1	inactive
Cc1nc(-c2ccc(Cl)cc2)oc1COC(C)(C)C(=O)O	inactive
CCCCCCCCCCCCOCCOCCOCCOCCOCCOCCOCCOCCOCCO	inactive
CCN(CC)c1ccc2c(-c3ccc(S(=O)(=O)O)cc3S(=O)(=O)[O-])c3ccc(=[N+](CC)CC)cc-3oc2c1	inactive
C#C[C@]1(OC(C)=O)CC[C@H]2[C@@H]3CCC4=C[C@@H](OC(C)=O)CC[C@@H]4[C@H]3CC[C@@]21C	inactive
O=C(/C=C/c1ccccc1)OC/C=C/c1ccccc1	inactive
CCCCCCOC(=O)C(C)CC (stereo not drawn)	inactive
Sc1nc2ccccc2s1	inactive
CC(=O)Oc1cc2c(s1)CCN(C(C(=O)C1CC1)c1ccccc1F)C2 (stereo not drawn)	inactive
O=S(=O)(O)c1ccc(Nc2nc(Nc3ccc(/C=C/c4ccc(Nc5nc(Nc6ccc(S(=O)(=O)O)cc6)nc(N(CCO)CCO)n5)cc4S(=O)(=O)O)c(S(=O)(=O)O)c3)nc(N(CCO)CCO)n2)cc1	inactive
Cc1c(F)c(N2CCNC(C)C2)cc2c1c(=O)c(C(=O)O)cn2C1CC1 (stereo not drawn)	inactive
CCCCCCCCCCCCCC[N+](C)(C)C	inactive
